Test: Metabolism stability test
Type: in vitro ADME
Settings: human liver microsomes, 30 minutes, 37° C., NADPH, 0.5 μmol/L of test compound
Experimental: Using commercially available pooled human hepatic microsomes, the compound of the present invention was reacted for a constant time, a remaining rate was calculated by comparing a reacted sample and an unreacted sample, thereby, a degree of metabolism of the compound of the present invention in liver was assessed. […]
EXPERIMENTAL_ENDPOINT: Remaining rate (%)
State the value with its unit after it.

[[record]]
compound = "Cc1ccc(-n2nc3c(c2NC(=O)CS(C)(=O)=O)C(=O)N[C@@]2(CCOc4cc(OCC(F)(F)F)ccc42)C3)nc1"
experimental_endpoint = "Remaining rate (%)"
experimental_value = "91.8%"

[[record]]
compound = "Cc1ccc(-n2nc3c(c2NC(=O)CS(C)(=O)=O)C(=O)N[C@@]2(CCc4cc(OCC(F)(F)F)ccc42)C3)nc1"
experimental_endpoint = "Remaining rate (%)"
experimental_value = "87.6%"

[[record]]
compound = "CS(=O)(=O)CC(=O)Nc1c2c(nn1CCCC(F)(F)F)C[C@@]1(CCc3cc(OCC(F)(F)F)ccc31)NC2=O"
experimental_endpoint = "Remaining rate (%)"
experimental_value = "62.6%"

[[record]]
compound = "Cc1ccc(-n2nc3c(c2NC(=O)C2CS(=O)(=O)C2)C(=O)N[C@@]2(CCOc4cc(OCC(F)(F)F)ccc42)C3)nc1"
experimental_endpoint = "Remaining rate (%)"
experimental_value = "99.9%"


IN: For the compound Cc1ccc(-n2nc3c(c2NC(=O)CS(C)(=N)=O)C(=O)N[C@@]2(CCc4cc(OCC(F)(F)F)ccc42)C3)nc1 (single isomer, unassigned) , report Remaining rate (%).
OUT: 98.2%

IN: For the compound "Cc1ccc(-n2nc3c(c2NC(=O)CS(C)(=O)=O)C(=O)N[C@@]2(CCOc4cc(OCC(C)(F)F)ccc42)C3)nc1" , report Remaining rate (%).
OUT: 82.6%

IN: For the compound "CS(=O)(=O)CC(=O)Nc1c2c(nn1-c1ccccn1)C[C@]1(CCc3cc(OCCCC(F)(F)F)ccc31)NC2=O" , report Remaining rate (%).
OUT: 98.7%

----------
molecular target: recombinant human MGAT2 (Homo sapiens (Human), UniProt Q3SYC2); assay: Measurement of human MGAT2 inhibitory activity; format: biochemical; details: read-out: IC50 (concentration exhibiting 50% enzyme inhibition), Table 52
Sequence (Q3SYC2 whole entry): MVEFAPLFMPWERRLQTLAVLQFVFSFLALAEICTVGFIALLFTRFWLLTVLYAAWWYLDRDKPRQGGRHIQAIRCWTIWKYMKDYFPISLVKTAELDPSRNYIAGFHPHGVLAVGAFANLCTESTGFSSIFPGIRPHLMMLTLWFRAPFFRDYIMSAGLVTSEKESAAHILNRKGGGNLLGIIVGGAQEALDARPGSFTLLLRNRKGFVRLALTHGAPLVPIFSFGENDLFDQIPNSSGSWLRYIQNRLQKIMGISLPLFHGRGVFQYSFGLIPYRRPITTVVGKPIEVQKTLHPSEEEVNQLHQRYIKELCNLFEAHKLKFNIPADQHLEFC
pIC50: −log10 of the molar value.
Please enter T where pIC50 is greater than or equal to 7, and F where it is lower.

[[record]]
compound = "CC(C)S(=O)(=O)NC(=O)c1c2c(nn1CCC1CC1)C[C@]1(CCc3cc(OCC(F)(F)F)ccc31)NC2=O"
test_target = "recombinant human MGAT2 (Homo sapiens (Human), UniProt Q3SYC2)"
class_label = "T"

[[record]]
compound = "O=C(Nc1c2c(nn1CCC1CC1)C[C@]1(CCc3cc(OCC(F)(F)F)ccc31)NC2=O)c1ncco1"
test_target = "recombinant human MGAT2 (Homo sapiens (Human), UniProt Q3SYC2)"
class_label = "T"

[[record]]
compound = "CS(=O)(=O)CC(=O)Nc1c2c(nn1CCCC(F)(F)F)C[C@]1(CCc3cc(OCCCC(F)(F)F)ccc31)NC2=O"
test_target = "recombinant human MGAT2 (Homo sapiens (Human), UniProt Q3SYC2)"
class_label = "T"

[[record]]
compound = "Cc1cccc(Cn2nc(NC(=O)CS(C)(=O)=O)c3c2C[C@]2(CCc4cc(OCCCC(F)(F)F)ccc42)NC3=O)c1"
test_target = "recombinant human MGAT2 (Homo sapiens (Human), UniProt Q3SYC2)"
class_label = "F"

[[record]]
compound = "O=C1N[C@@]2(CCc3cc(OCC(F)(F)F)ccc32)Cc2nn(CCC3CC3)c(CNS(=O)(=O)C3CC3)c21"
test_target = "recombinant human MGAT2 (Homo sapiens (Human), UniProt Q3SYC2)"
class_label = "F"

[[record]]
compound = "COCCCn1nc2c(c1NC(=O)CS(C)(=O)=O)C(=O)N[C@@]1(CCc3cc(OCC(F)(F)F)ccc31)C2"
test_target = "recombinant human MGAT2 (Homo sapiens (Human), UniProt Q3SYC2)"
class_label = "T"


IN: Threshold query (pIC50 >= 7) on "CS(=O)(=O)CC(=O)Nc1c2c(nn1-c1cc(C(F)(F)F)cc(C(F)(F)F)c1)C[C@]1(CCc3cc(OCC(F)(F)F)ccc31)NC2=O"
OUT: F

IN: Threshold query (pIC50 >= 7) on "CS(=O)(=O)CC(=O)Nc1c2c(nn1C1CCCCC1)C[C@]1(CCc3cc(OCCCC(F)(F)F)ccc31)NC2=O"
OUT: T

IN: Threshold query (pIC50 >= 7) on "CS(=O)(=O)CC(=O)Nc1c2c(nn1-c1ccc(C#N)cc1)C[C@]1(CCc3cc(OCCCC(F)(F)F)ccc31)NC2=O"
OUT: T

IN: Threshold query (pIC50 >= 7) on CS(=O)(=O)CC(=O)Nc1c2c(nn1CC1CCC(C(F)(F)F)CC1)C[C@]1(CCc3cc(OCCCC(F)(F)F)ccc31)NC2=O (stereo partly shown)
OUT: F
